target: Avi-KRAS WT (1-169) GppNHp/RAF1 RBD-3xFLAG (52-151) (Homo sapiens); construct: Avi-KRAS WT (1-169); assay: Raf1-KRAS WT-GppNHP disruption HTRF assay (Biological Example 1); type: binding; conditions: KRAS WT-GppNHp/RAF1 RBD HTRF
measurement_type: IC50

These solved cases illustrate the format of a correct answer.
N#Cc1c(N)sc2c(F)ccc(-c3c(C(F)(F)F)cc4c(N5CC6CCC(C5)N6C(=O)C5CC5)nc(OC[C@@]56CCCN5C[C@H](F)C6)nc4c3F)c12: 1000 to 10000 nM
N#Cc1c(N)sc2c(F)ccc(-c3c(C(F)(F)F)cc4c(N5CCCCCC5)nc(OC[C@@]56CCCN5C[C@H](F)C6)nc4c3F)c12: 100 to 1000 nM
N#Cc1c(N)sc2c(F)ccc(-c3c(C(F)(F)F)cc4c(N5CCc6nocc6C5)nc(OC[C@@]56CCCN5C[C@H](F)C6)nc4c3F)c12: 100 to 1000 nM

Query: Field request: IC50 | item: "CCN1C[C@@H](N(CC)c2nc(OC[C@@]34CCCN3C[C@H](F)C4)nc3c(F)c(-c4ccc(F)c5sc(N)c(C#N)c45)c(C(F)(F)F)cc23)CC1=O"
Reply: < 100 nM

Query: Field request: IC50 | item: COC1C2CN(c3nc(OC[C@@]45CCCN4C[C@H](F)C5)nc4c(F)c(-c5ccc(F)c6sc(N)c(C#N)c56)c(C(F)(F)F)cc34)C1CO2 (some centres unmarked)
Reply: 100 to 1000 nM

###

molecular target: Avi-KRAS G12D (1-169) GppNHp/RAF1 RBD-3xFLAG (52-151) (Homo sapiens, UniProt P01116, G12D); construct: Avi-KRAS G12D (1-169); assay: Raf1-KRAS G12D-GppNHP disruption HTRF assay (Biological Example 1); assay type: binding; conditions: KRAS G12D, GppNHp-loaded; class symbols
Sequence (P01116 1-169 isoform P01116-2 G12D): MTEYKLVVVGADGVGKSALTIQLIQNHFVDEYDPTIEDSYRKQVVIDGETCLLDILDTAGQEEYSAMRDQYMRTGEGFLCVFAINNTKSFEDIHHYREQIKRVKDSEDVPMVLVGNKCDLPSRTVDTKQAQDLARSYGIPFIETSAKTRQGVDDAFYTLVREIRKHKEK
measurement_type: IC50

These solved cases illustrate the format of a correct answer.
Cc1c(C(=O)N2CCCC2)nn2c1CN(c1nc(OCC34CCCN3CC(F)C4)nc3c(F)c(-c4ccc(F)c5sc(N)c(C#N)c45)c(C(F)(F)F)cc13)CC2 (stereo not drawn): 100 to 1000 nM
CCN(c1nc(OC[C@@]23CCCN2C[C@H](F)C3)nc2c(F)c(-c3ccc(F)c4sc(N)c(C#N)c34)c(C(F)(F)F)cc12)[C@H]1CCN(C(=O)[C@@H]2CC2(F)F)[C@@H]1C (atropisomer, axis not shown): < 100 nM
CCN(c1nc(OC[C@@]23CCCN2C[C@H](F)C3)nc2c(F)c(-c3ccc(F)c4sc(N)c(C#N)c34)c(C(F)(F)F)cc12)[C@H]1C[C@H]2CN(C(C)C)C(=O)N2C1 (atropisomer, axis not shown): < 100 nM
CCN(c1nc(OC[C@@]23CCCN2C[C@H](F)C3)nc2c(F)c(-c3ccc(F)c4sc(N)c(C#N)c34)c(C(F)(F)F)cc12)[C@H]1CCN(C(=O)N2CCC2)C1 (atropisomer, axis not shown): < 100 nM
CCN(c1nc(OC[C@@]23CCCN2C[C@H](F)C3)nc2c(F)c(-c3ccc(F)c4sc(N)c(C#N)c34)c(C(F)(F)F)cc12)[C@H]1CCN(C(=O)N(C)C)[C@H]1C (atropisomer, axis not shown): 100 to 1000 nM

API: the following record is the query input.
Query: Field request: IC50 | item: CCN(c1nc(OC[C@@]23CCCN2C[C@H](F)C3)nc2c(F)c(-c3ccc(F)c4sc(N)c(C#N)c34)c(C(F)(F)F)cc12)[C@H]1C[C@H](C)N(C(=O)[C@@H](C)OC)C1 (atropisomer, axis not shown) [Compound 763]
Reply: 100 to 1000 nM

###

test system: SW620 cells (KRAS G12V); test: Cell-based pERK HTRF assay in SW620 cell (Biological Example 4); settings: Homo sapiens, SW-620, SW620 (KRAS G12V) cells, pERK HTRF
Item-by-item account of IC50

These solved cases illustrate the format of a correct answer.
N#Cc1c(N)sc2c(F)ccc(-c3c(C(F)(F)F)cc4c(N5CCNC(=O)CC5)nc(OC[C@@]56CCCN5C[C@H](F)C6)nc4c3F)c12: 100 to 1000 nM
N#Cc1c(N)sc2c(F)ccc(-c3c(C(F)(F)F)cc4c(N5CCN6C(=O)CCC6C5)nc(OCC56CCCN5CC(F)C6)nc4c3F)c12 (centres unmarked): < 100 nM
N#Cc1c(N)sc2c(F)ccc(-c3c(C(F)(F)F)cc4c(N5CCO[C@@H]6C[C@@H]65)nc(OC[C@@]56CCCN5C[C@H](F)C6)nc4c3F)c12: < 100 nM

API: the following record is the query input.
Query: Field request: IC50 | item: "CCN(c1nc(OC[C@@]23CCCN2C[C@H](F)C3)nc2c(F)c(-c3ccc(F)c4sc(N)c(C#N)c34)c(C(F)(F)F)cc12)[C@H]1CCN(C(=O)C2CC2)C1"
Reply: < 100 nM

###

Item-by-item account of pIC50
target: Avi-KRAS G12V (2-169) GTP/RAF1 RBD-3xFLAG (51-131) (Homo sapiens, UniProt P01116, G12V); construct: Avi-KRAS G12V (2-169); experiment: Raf1-KRAS G12V-GTP disruption HTRF assay (Biological Example 3); assay type: binding; conditions: KRAS G12V, GTP-loaded
Sequence (P01116 2-169 isoform P01116-2 G12V): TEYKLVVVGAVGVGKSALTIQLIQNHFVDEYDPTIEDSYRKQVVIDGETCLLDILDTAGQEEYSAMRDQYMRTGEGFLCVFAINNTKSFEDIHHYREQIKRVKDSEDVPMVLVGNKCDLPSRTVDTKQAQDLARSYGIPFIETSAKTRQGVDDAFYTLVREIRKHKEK
pIC50: −log10 of the molar value.

These solved cases illustrate the format of a correct answer.
CCN(c1nc(OC[C@@]23CCCN2C[C@H](F)C3)nc2c(F)c(-c3ccc(F)c4sc(N)c(C#N)c34)c(C(F)(F)F)cc12)[C@H]1CCN(C(C)=O)C1: 6.00 to 7.00
CCN(c1nc(OC[C@@]23CCCN2C[C@H](F)C3)nc2c(F)c(-c3ccc(F)c4sc(N)c(C#N)c34)c(C(F)(F)F)cc12)[C@H]1CCN(C(=O)O[C@H](C)C(F)(F)F)C1 (atropisomer, axis not shown): 5.00 to 6.00
CCN(c1nc(OC[C@@]23CCCN2C[C@H](F)C3)nc2c(F)c(-c3ccc(F)c4sc(N)c(C#N)c34)c(C(F)(F)F)cc12)[C@H]1C[C@H]2[C@H](C)OC(=O)N2C1 (atropisomer, axis not shown): 6.00 to 7.00
N#Cc1c(N)sc2c(F)ccc(-c3c(C(F)(F)F)cc4c(N5Cc6ccncc6C5)nc(OC[C@@]56CCCN5C[C@H](F)C6)nc4c3F)c12: 5.00 to 6.00
CN(C)C(=O)[C@@H]1CC[C@@H](N(C)c2nc(OC[C@@]34CCCN3C[C@H](F)C4)nc3c(F)c(-c4ccc(F)c5sc(N)c(C#N)c45)c(C(F)(F)F)cc23)C1 (atropisomer, axis not shown): 5.00 to 6.00

Query: Field request: pIC50 | item: CCN(c1nc(OC[C@@]23CCCN2C[C@H](F)C3)nc2c(F)c(-c3ccc(F)c4sc(N)c(C#N)c34)c(C(F)(F)F)cc12)[C@H]1CCN(C(=O)[C@@H]2CCO2)[C@@H]1C (atropisomer, axis not shown)
Reply: ≥ 7.00

Query: Field request: pIC50 | item: CCN(c1nc(OC[C@@]23CCCN2C[C@H](F)C3)nc2c(F)c(-c3ccc(F)c4sc(N)c(C#N)c34)c(C(F)(F)F)cc12)[C@H]1CCN(C(=O)c2ccns2)C1 (atropisomer, axis not shown)
Reply: 6.00 to 7.00

Query: Field request: pIC50 | item: CCN(c1nc(OC[C@@]23CCCN2C[C@H](F)C3)nc2c(F)c(-c3ccc(F)c4sc(N)c(C#N)c34)c(C(F)(F)F)cc12)[C@H]1CCN(C(=O)N2CC3C(C2)C3(C)C)C1 (some centres unmarked)
Reply: 6.00 to 7.00

###

Item-by-item account of IC50
Biological target: Avi-KRAS WT (1-169) GppNHp/RAF1 RBD-3xFLAG (52-151) (Homo sapiens, UniProt P01116)
Construct: Avi-KRAS WT (1-169)
Sequence (P01116 1-169 isoform P01116-2): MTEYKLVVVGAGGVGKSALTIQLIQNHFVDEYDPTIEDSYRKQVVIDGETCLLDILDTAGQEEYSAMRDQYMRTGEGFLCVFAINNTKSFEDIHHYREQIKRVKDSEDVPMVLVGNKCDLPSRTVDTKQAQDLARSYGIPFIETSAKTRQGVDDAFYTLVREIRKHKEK
Test: Raf1-KRAS WT-GppNHP disruption HTRF assay (Biological Example 1)
Format: binding
Conditions: KRAS WT, GppNHp-loaded; class symbols
Description: A protein:protein interaction (PPI) Homogeneous Time Resolved Fluorescence (HTRF) assay was used to determine the effectiveness of compounds of the present disclosure in disrupting KRAS protein and effector RAF1 binding. The assay buffer included: 50 mM Tris pH 7.5, 100 mM NaCl, 5 mM MgCl2, 0.1% BSA, 0.01% Tween, and 10% DMSO. The bead buffer included: 50 mM Tris pH 7.5, and 0.01% Tween 20. […] Data was reported as percentage of activity, with DMSO as 100%. Data was plotted and analyzed using Prism 8.

CCN(c1nc(OCC23CCCN2CC(F)C3)nc2c(F)c(-c3ccc(F)c4sc(N)c(C#N)c34)c(C(F)(F)F)cc12)C1CCN(C(=O)c2oncc2C)C1 (stereo not shown): < 100 nM
CCN(c1nc(OC[C@@]23CCCN2C[C@H](F)C3)nc2c(F)c(-c3ccc(F)c4sc(N)c(C#N)c34)c(C(F)(F)F)cc12)[C@H]1C[C@@H](C)N(C(=O)[C@H]2CCO2)C1 (atropisomer, axis not shown): 100 to 1000 nM
CCN(c1nc(OC[C@@]23CCCN2C[C@H](F)C3)nc2c(F)c(-c3ccc(F)c4sc(N)c(C#N)c34)c(C(F)(F)F)cc12)[C@H]1C[C@@H](COC)N(C(C)=O)C1 (atropisomer, axis not shown): 100 to 1000 nM

Query: Field request: IC50 | item: CCN(c1nc(OC[C@@]23CCCN2C[C@H](F)C3)nc2c(F)c(-c3ccc(F)c4sc(N)c(C#N)c34)c(C(F)(F)F)cc12)[C@H]1CCN(C(=O)[C@@H]2C[C@H]2C)C1 (atropisomer, axis not shown)
Reply: < 100 nM

Query: Field request: IC50 | item: CCN(c1nc(OC[C@@]23CCCN2C[C@H](F)C3)nc2c(F)c(-c3ccc(F)c4sc(N)c(C#N)c34)c(C(F)(F)F)cc12)[C@H]1C[C@H]2CN(C3CCC3)C(=O)N2C1 (atropisomer, axis not shown)
Reply: < 100 nM

Query: Field request: IC50 | item: Cc1ccc(CN(C)c2nc(OC[C@@]34CCCN3C[C@H](F)C4)nc3c(F)c(-c4ccc(F)c5sc(N)c(C#N)c45)c(C(F)(F)F)cc23)c(N)n1 (atropisomer, axis not shown)
Reply: 1000 to 10000 nM

Query: Field request: IC50 | item: CCN(c1nc(OC[C@@]23CCCN2C[C@H](F)C3)nc2c(F)c(-c3ccc(F)c4sc(N)c(C#N)c34)c(C(F)(F)F)cc12)[C@H]1CCN(C(=O)c2ncc(C)o2)C1 (atropisomer, axis not shown)
Reply: 100 to 1000 nM

Query: Field request: IC50 | item: CCN(c1nc(OC[C@@]23CCCN2C[C@H](F)C3)nc2c(F)c(-c3ccc(F)c4sc(N)c(C#N)c34)c(C(F)(F)F)cc12)[C@H]1CCN(C(=O)N2CC(OC(F)F)C2)C1 (atropisomer, axis not shown)
Reply: < 100 nM

Query: Field request: IC50 | item: CCN(c1nc(OC[C@@]23CCCN2C[C@H](F)C3)nc2c(F)c(-c3ccc(F)c4sc(N)c(C#N)c34)c(C(F)(F)F)cc12)[C@H]1CCN(C(=O)OC2CCOCC2)C1 (atropisomer, axis not shown)
Reply: < 100 nM

Query: Field request: IC50 | item: CCN1C[C@@H](N(C)c2nc(OC[C@@]34CCCN3C[C@H](F)C4)nc3c(F)c(-c4ccc(F)c5sc(N)c(C#N)c45)c(C(F)(F)F)cc23)CC1=O (atropisomer, axis not shown)
Reply: < 100 nM
